Assay system HPK1 (Homo sapiens (Human)); read-out recorded as pIC50.
pIC50: −log10 of the molar value.

molecule	pIC50
CC(C)n1nc(F)c2c(N3C[C@H](N)C4(CC4)C3)c(NC(=O)c3ccc(=O)n(-c4c(F)cccc4F)n3)ccc21 [Example 199]	6.00 to 7.00
C[C@@H]1CN(c2c(NC(=O)c3ccc(=O)n(-c4c(F)cccc4F)n3)ccc3c2cnn3[C@H]2CCOC2)C[C@@H]1N [Example 255]	> 7.00
N[C@@H]1CCN(c2c(NC(=O)c3ccc(=O)n(-c4c(F)cccc4F)n3)ccc3nn(C4CCOCC4)cc23)C1 [Example 337]	> 7.00
Cc1nc2c(N3CCCC4(CNC4)C3)c(NC(=O)c3ccc(=O)n(-c4c(F)cccc4F)n3)ccc2n1C [Example 84]	6.00 to 7.00
C[C@@H]1CN(c2c(NC(=O)c3ccc(=O)n(-c4c(F)cccc4F)n3)ccc3c2cnn3C)C[C@@H]1N [Example 166]	> 7.00

Input line: Please report the recorded pIC50 for C[C@@H]1CN(c2c(NC(=O)c3ccc(=O)n(-c4c(F)cccc4F)n3)ccc3c2cnn3C2CC2)C[C@@H]1N [Example 298] .
Output line: > 7.00

Input line: Similarly, CC(C)c1nc2c(N3CC[C@@H](O)C3)c(NC(=O)c3ccc(=O)n(-c4c(F)cccc4F)n3)ccc2n1C [Example 117] ?
Output line: > 7.00
